Tested on: SK-OV-3 ovarian
Experiment: NCI-60 one-dose screen, 48 h (100 = growth as untreated, 0 = no growth, -100 = all killed)
Settings: 10 µM unless noted
The panel holds about 83,000 compounds, 20% with a hit somewhere; the sample as a whole holds those more often.
Labelling: growth reported below 90% becomes yes; at or above becomes no.

Please review the following examples before continuing.
1) CNC(=O)Oc1cccc(C(F)(F)F)c1 ... no
2) COc1ccc(/C=C/c2cc(OC)c(OC)c(OC)c2)cc1NC(=O)/C=C/c1ccc(F)cc1 ... yes
3) Nc1nc([Se])c2ncn(C3OC(CO)C(O)C3O)c2n1 (stereo not given) ... yes
4) NC(=O)c1c(Br)n(C2OC(CO)C(O)C2O)c2ncnc(N)c12 (stereo not given) ... yes
5) CC(=O)OC[C@]1(C)C=C2C(=O)[C@](C)(O)C3(CC3)C(C)=C2[C@H]1OC(=O)N(C)CCN(C)C(=O)OC(C)(C)C ... yes

Task: Quick check: does `C[C@@]1(CCCCCCCCCc2ccc(O)cc2)C[C@]2(C)OC(=O)C[C@@H]2OO1` have growth under 90%?
Output: no

Task: # iterate: `Clc1ccc(CO/N=C(\Cn2ccnc2)c2ccc(Cl)cc2Cl)c(Cl)c1`
Output: no

Task: Another compound to check: `COC(=O)[C@@H](C)C[C@H](Cc1ccccc1)NC(=O)c1csc([C@@H](C[C@H](C(C)C)N(C)C(=O)[C@H](C)NC(=O)[C@H]2CCCCN2C)OC(C)=O)n1`
Output: yes

Task: What about this compound? `N#CCCNc1ccccc1`
Output: no

Task: Entry CN(C)CC(C(=O)Cc1ccccc1)c1ccccc1 (stereo not given) please
Output: no

Task: Now try `O=C(CCl)c1ccc([N+](=O)[O-])o1` .
Output: no

Task: Try `CC1=C(CCCOC(=O)[C@H](N)CC(C)C)C2=C(C)C3(CC3)[C@@](C)(O)C(=O)C2=C1` next.
Output: yes

Task: What about this compound? `O=C(O)C(Cl)(Cl)C(F)(F)F`
Output: no

Task: Then CCC(CC)CC1(C)CC2(C)CCOC2OO1 (stereo not given) ?
Output: no

Task: And `CC1(C)[C@H](O)[C@H](F)C[C@@]2(C)Oc3ccc(C(=O)Nc4ccc5c(c4)NC(=O)C54CCN(CCCCC#N)CC4)cc3C[C@H]12` ?
Output: yes

Task: Can you check O=C(CC1(O)C(=O)Nc2ccccc21)c1ccc(C(=O)NCC2CCC3(CC2)OOC2(CCCCC2)OO3)cc1 (stereo not given) next?
Output: yes

Task: Also check `COC(=O)[C@@H](C)C[C@H](Cc1ccccc1)NC(=O)c1csc([C@@H](C[C@H](C(C)C)N(C)C(=O)[C@@H](NC(=O)[C@H]2CCCCN2C)C(C)C)OC(C)=O)n1`
Output: yes
